assay: Lipophilicity determination by RP-TLC; type: physicochemical; conditions: 72:28 MeOH:NaOAc buffer (pH 7.4)
So basically: is RM (pH 7.4) under 0.6? Then criterion met. Not under? Then criterion not met.

Q: Just wondering, is RM (pH 7.4) of O=C(/C=C/c1ccccc1)Nc1cc(C(F)(F)F)ccc1Br below 0.6?
Ans: criterion met

Q: Determine whether this compound shows RM (pH 7.4) lower than 0.6 (ties excluded): O=C(/C=C/c1ccccc1)Nc1c(Br)cc(F)c(Cl)c1Br
Ans: criterion met

Q: Is the reported RM (pH 7.4) for O=C(/C=C/c1ccccc1)Nc1cc(Cl)c(Cl)c(Cl)c1 strictly below 0.6?
Ans: criterion not met

Q: Determine whether this compound shows RM (pH 7.4) lower than 0.6 (ties excluded): O=C(/C=C/c1ccccc1)Nc1ccc(Br)c(F)c1
Ans: criterion not met

Q: Identify whether the compound O=C(/C=C/c1ccccc1)Nc1ccc(Cl)cc1Br records RM (pH 7.4) below 0.6.
Ans: criterion not met

---

I'd appreciate it if you could supply RM (100% MeOH) values for the items below.
assay: Lipophilicity determination by RP-TLC; format: physicochemical; conditions: 100% MeOH
Number only, please.

Q: Param item = O=C(/C=C/c1ccccc1)Nc1ccc(Br)cc1Br ; retrieve measured RM (100% MeOH).
Ans: −0.3098

Q: Look at this compound and give its reported RM (100% MeOH). O=C(/C=C/c1ccccc1)Nc1cc(Cl)ccc1F
Ans: −0.4711

Q: Form field: reported RM (100% MeOH) of O=C(/C=C/c1ccccc1)Nc1c(Br)cc(F)c(Cl)c1Br
Ans: −0.5541

Q: Query: RM (100% MeOH); subject: O=C(/C=C/c1ccccc1)Nc1cc(Cl)c(Cl)c(Cl)c1
Ans: −0.1870

---

details: RP-HPLC, 72:28 MeOH:H2O
Measured Metric: Logk

Q: Any idea what its Logk is? The compound is O=C(/C=C/c1ccccc1)Nc1cc(Cl)c(Cl)c(Cl)c1
Ans: 0.9671

Q: Look up Logk for this compound: O=C(/C=C/c1ccccc1)Nc1c(Br)cc(F)c(Cl)c1Br
Ans: 0.3139

Q: Quick one: Logk for O=C(/C=C/c1ccccc1)Nc1ccc(Br)cc1Br ?
Ans: 0.6152
